Reference source: paper PMC5540273

tested on: PAK7; settings: concentration: 1 μM,replicates: in singlicate; n = 1;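 also: KINOMEscan kinase panel screen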

[
  {
    "molecule": "CN(c1ccc2c(c1)nc(NCc1ccc(F)cc1)n2C)c1ccnc(Nc2ccc(CS(C)(=O)=O)cc2)n1.Cl",
    "unitAbbreviation": "%",
    "%Inh": 0
  },
  {
    "molecule": "O=C1NCCc2[nH]c(-c3ccncc3)cc21",
    "unitAbbreviation": "%",
    "%Inh": 0
  },
  {
    "molecule": "CC(C)S(=O)(=O)N1CCN(Cc2ccc3c(c2)nc(NC(=O)c2ccsc2)n3C[C@H](O)c2ccccc2)CC1",
    "unitAbbreviation": "%",
    "%Inh": 35
  },
  {
    "molecule": "CN(c1cccc(CNc2nc(Nc3ccc4c(c3)CC(=O)N4)ncc2C(F)(F)F)c1)S(C)(=O)=O",
    "unitAbbreviation": "%",
    "%Inh": 13
  },
  {
    "molecule": "O=c1[nH]cc(-c2ccc(O)cc2)c2sc(-c3ccncc3)cc12",
    "unitAbbreviation": "%",
    "%Inh": 5
  },
  {
    "molecule": "Cc1cccc2c(-c3ccncc3)c(-c3ccc(F)cc3)nn12.Cl",
    "unitAbbreviation": "%",
    "%Inh": 0
  },
  {
    "molecule": "C[C@@H]1CCN(C(=O)N2CCCC2)C[C@@H]1N(C)c1ncnc2[nH]ccc12",
    "unitAbbreviation": "%",
    "%Inh": 3
  },
  {
    "molecule": "Cl.c1ccc(Oc2ccc(Nc3ccnc4cc(-c5ccc(CN6CCNCC6)o5)ccc34)cc2)nc1",
    "unitAbbreviation": "%",
    "%Inh": 0
  },
  {
    "molecule": "Cc1cccc(-c2nc(Nc3ccncc3)c3sccc3n2)n1",
    "unitAbbreviation": "%",
    "%Inh": 2
  },
  {
    "molecule": "Cn1cc(-c2cccc3c(N)c(C(N)=O)nnc23)cn1",
    "unitAbbreviation": "%",
    "%Inh": 18
  },
  {
    "molecule": "CCNCC(Cc1ccccc1)NC(=O)c1cc(Br)c(-c2ccnc3[nH]ccc23)s1.Cl.Cl (stereo not shown)",
    "unitAbbreviation": "%",
    "%Inh": 78
  },
  {
    "molecule": "O=C(Nc1cccc(C(F)(F)F)c1)c1cccc(Oc2ccc3nccn3n2)c1",
    "unitAbbreviation": "%",
    "%Inh": 0
  },
  {
    "molecule": "Cc1ccn2nc(-c3ccc(F)cc3)c(-c3ccncc3)c2c1.Cl",
    "unitAbbreviation": "%",
    "%Inh": 21
  },
  {
    "molecule": "O=C(NOCC1CC1)c1cc(Br)c(F)c(F)c1Nc1ccc(I)cc1Cl",
    "unitAbbreviation": "%",
    "%Inh": 0
  },
  {
    "molecule": "COc1cc(Nc2nccc(N3CCC(NC(=O)c4cccc(C#N)c4)C3)n2)cc(OC)c1OC (stereo not shown)",
    "unitAbbreviation": "%",
    "%Inh": 1
  },
  {
    "molecule": "C[C@@H](Oc1cc(-n2cnc3cc(-c4cnn(C)c4)ccc32)sc1C(N)=O)c1ccccc1Cl",
    "unitAbbreviation": "%",
    "%Inh": 0
  },
  {
    "molecule": "COc1cccc(OC)c1C(=O)Nc1cccc(-c2nn3ccccc3c2-c2ccnc(Nc3cccc(F)c3)n2)c1",
    "unitAbbreviation": "%",
    "%Inh": 0
  },
  {
    "molecule": "COc1cccc(CNC(=O)NC2CCN(c3ccnc(Nc4cc(OC)c(OC)c(OC)c4)n3)C2)c1 (stereo not shown)",
    "unitAbbreviation": "%",
    "%Inh": 1
  },
  {
    "molecule": "NC(=O)c1ccc(-c2cc3ncnc(SCC(=O)O)c3s2)cc1",
    "unitAbbreviation": "%",
    "%Inh": 0
  }
]

----------
system: AURKB; details: concentration: 1 μM,replicates: in singlicate; n = 1

[
  {
    "compound": "CN1CCN(CCCNc2nccc(-c3c(-c4ccc(F)cc4)nn4cc(C(N)=O)ccc34)n2)CC1 [GW622475]",
    "targetEntity": "AURKB",
    "unitAbbreviation": "%",
    "%Inh": 5
  },
  {
    "compound": "CCNCC(Cc1ccccc1)NC(=O)c1cc(Br)c(-c2ccnc3[nH]ccc23)s1.Cl.Cl (stereo not drawn) [GSK1383280]",
    "targetEntity": "AURKB",
    "unitAbbreviation": "%",
    "%Inh": 93.6
  },
  {
    "compound": "Cl.c1ccc(Oc2ccc(Nc3ccnc4cc(-c5ccc(CN6CCNCC6)o5)ccc34)cc2)nc1 [GW567142]",
    "targetEntity": "AURKB",
    "unitAbbreviation": "%",
    "%Inh": 77
  },
  {
    "compound": "CCOC(=O)N1CCC(n2cnc(-c3ccc(F)cc3)c2-c2ccnc(N)n2)CC1 [SB-219952]",
    "targetEntity": "AURKB",
    "unitAbbreviation": "%",
    "%Inh": 37
  },
  {
    "compound": "Cn1ccc2ncnc(Oc3ccc(NC(=O)Nc4cc(C(C)(C)C)on4)c(Cl)c3)c21",
    "targetEntity": "AURKB",
    "unitAbbreviation": "%",
    "%Inh": 88
  },
  {
    "compound": "CC(=O)c1c(-c2ccncc2)[nH]c(-c2ccncc2)c1C [GW493036]",
    "targetEntity": "AURKB",
    "unitAbbreviation": "%",
    "%Inh": 16
  },
  {
    "compound": "C[C@@H]1CCN(C(=O)N2CCCC2)C[C@@H]1N(C)c1ncnc2[nH]ccc12",
    "targetEntity": "AURKB",
    "unitAbbreviation": "%",
    "%Inh": 31
  },
  {
    "compound": "O=C(Nc1cccc(Oc2ccc3nccn3n2)c1)Nc1cccc(C(F)(F)F)c1",
    "targetEntity": "AURKB",
    "unitAbbreviation": "%",
    "%Inh": 0
  },
  {
    "compound": "NC(=O)Nc1sc(-c2ccc(F)cc2)cc1C(N)=O [GW789449]",
    "targetEntity": "AURKB",
    "unitAbbreviation": "%",
    "%Inh": 83
  },
  {
    "compound": "Cn1ccc2ncnc(Oc3ccc(NC(=O)Nc4cccc(C(F)(F)F)c4)c(F)c3)c21",
    "targetEntity": "AURKB",
    "unitAbbreviation": "%",
    "%Inh": 88
  },
  {
    "compound": "COC(=O)c1cccc(NC(=O)NC2CCN(c3ccnc(Nc4cc(OC)c(OC)c(OC)c4)n3)C2)c1 (stereo not drawn) [GSK1379767]",
    "targetEntity": "AURKB",
    "unitAbbreviation": "%",
    "%Inh": 39
  },
  {
    "compound": "C[C@@H]1CNc2c(sc3ccc4nc(-c5ccc(O)cc5)ccc4c23)C(=O)N1",
    "targetEntity": "AURKB",
    "unitAbbreviation": "%",
    "%Inh": 24
  }
]

----------
Listed here are molecules together with their documented %Inh.
system: JAK3(JH1domain-catalytic); settings: concentration: 1 μM,replicates: in singlicate; n = 1

[
  {
    "molecule": "Cc1nnc(-c2ccc3occ(-c4ccc(S(C)=O)cc4)c3n2)o1 (stereo not drawn)",
    "%Inh [%]": 0
  },
  {
    "molecule": "COc1cc2ncn(-c3cc(OCC4CCCCC4)c(C(N)=O)s3)c2cc1OC",
    "%Inh [%]": 0
  },
  {
    "molecule": "CCCC(=O)Nc1n[nH]c2ncccc12",
    "%Inh [%]": 0
  }
]

----------
Listed here are molecules together with their documented %Inh.
system: ROCK1; details: concentration: 1 μM,replicates: in singlicate; n = 1

[
  {
    "molecule": "COc1ccc(Nc2nccc(N3CCC(NC(=O)c4cccc(C#N)c4)C3)n2)cc1 (stereo not drawn)",
    "%Inh, %": 25
  },
  {
    "molecule": "CCn1c(-c2nonc2N)nc2cncc(Br)c21",
    "%Inh, %": 99.7
  },
  {
    "molecule": "Cn1ccc2ncnc(Oc3ccc(NC(=O)Nc4cccc(C(F)(F)F)c4)c(F)c3)c21",
    "%Inh, %": 0
  },
  {
    "molecule": "Cc1ccn2nc(-c3ccc(F)cc3)c(-c3ccncc3)c2c1.Cl",
    "%Inh, %": 12
  },
  {
    "molecule": "O=C(NOCC1CC1)c1cc(Br)c(F)c(F)c1Nc1ccc(I)cc1Cl",
    "%Inh, %": 0
  },
  {
    "molecule": "Cn1ccc2ncnc(Oc3ccc(NC(=O)Nc4ccnc(C(F)(F)F)c4)c(Cl)c3)c21",
    "%Inh, %": 17
  },
  {
    "molecule": "CN1CCN(CCCNc2nccc(-c3c(-c4ccc(F)cc4)nn4cc(C(N)=O)ccc34)n2)CC1",
    "%Inh, %": 0
  },
  {
    "molecule": "COc1cc2ncn(-c3cc(OCC4CCCCC4)c(C(N)=O)s3)c2cc1OC",
    "%Inh, %": 0
  },
  {
    "molecule": "C[C@@H]1CCN(C(=O)N2CCCC2)C[C@@H]1N(C)c1ncnc2[nH]ccc12",
    "%Inh, %": 43
  }
]
